The following compounds are shown together with reported IC50 values.
# Target Or Test System: human muscarinic acetylcholine M3 receptor (Homo sapiens, UniProt P20309)
# Construct: expressed in transfected cells; host or cells: CHO-K1 (Chinese Hamster Ovary) cell membranes
# Sequence (P20309 whole entry): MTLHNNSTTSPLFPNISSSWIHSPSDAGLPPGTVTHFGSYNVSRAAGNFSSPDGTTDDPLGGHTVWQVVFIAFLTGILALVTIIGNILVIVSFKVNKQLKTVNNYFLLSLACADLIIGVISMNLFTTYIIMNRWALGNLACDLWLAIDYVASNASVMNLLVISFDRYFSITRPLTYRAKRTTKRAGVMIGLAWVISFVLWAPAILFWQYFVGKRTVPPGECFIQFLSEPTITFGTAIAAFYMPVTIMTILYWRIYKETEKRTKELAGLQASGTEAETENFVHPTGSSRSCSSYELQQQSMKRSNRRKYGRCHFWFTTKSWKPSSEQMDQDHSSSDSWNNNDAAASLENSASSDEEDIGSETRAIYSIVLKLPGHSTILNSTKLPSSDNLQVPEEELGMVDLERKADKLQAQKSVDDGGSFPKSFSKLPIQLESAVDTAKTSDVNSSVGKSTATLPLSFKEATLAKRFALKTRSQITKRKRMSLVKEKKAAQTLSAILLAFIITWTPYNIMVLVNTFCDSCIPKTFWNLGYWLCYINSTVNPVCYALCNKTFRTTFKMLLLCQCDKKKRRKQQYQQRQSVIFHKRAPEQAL
# Protocol Details: biochemical
# Assay type: binding
# Measurement Conditions: M3 binding IC50
Counter-ions that a name gives are not always drawn.

1. Cc1cncc(NC(=O)C[N+]23CCC(CC2)[C@@H](OC(=O)C2(c4ccccc4)CCCCCC2)C3)n1	< 2 nM
2. O=C(C[N+]12CCC(CC1)[C@@H](OC(=O)C1(c3ccccc3)CCCCCC1)C2)Nc1ccccc1F	< 2 nM
3. O=C(O[C@H]1C[N+]2(CCOc3cccnc3)CCC1CC2)C1(c2ccccc2)CCCCCC1 [Example 29, formate]	2 to 10 nM

Shift focus to the following entry.
Qu. Look up IC50: `O=C(C[N+]12CCC(CC1)[C@@H](OC(=O)C1(c3ccccc3)CCCCCC1)C2)Nc1ncccn1`
Ans. < 2 nM
